Reference source for all entries: ChEMBL document CHEMBL1146598

# test: In vitro inhibition of 38-beta7 (alpha4-beta7) cell adhesion to mucosal addressin cell adhesion molecule-1.
# Assay type: functional
reported.property: Adhesion (%)
Numbers only, in %.

Below: 4 molecules and their reported Adhesion.
>>> recorded_measurement("COC1C(COCC(C)C)O[C@@H](OCC(=O)O)C(OCc2ccccc2)[C@H]1OC (stereo not given in full)")
100
>>> recorded_measurement("COC1C(COC(C)C)O[C@@H](OCC(=O)O)[C@H](OCc2ccccc2)[C@H]1OC (stereo not given in full)")
100
>>> recorded_measurement("COC1C(COC(C)C)O[C@@H](OCC(=O)O)C(OCCO)[C@H]1OC (stereo not given in full)")
100
>>> recorded_measurement("CO[C@]12CCCC[C@@]1(OC)OC1[C@H](COCC(C)C)O[C@@H](OCC(=O)O)[C@H](OCc3ccccc3)[C@H]1O2 (stereo in doubt; form 2)")
15

Query: Please give the measured Adhesion for this molecule: COC1C(CCC(C)C)O[C@@H](OCC(=O)O)[C@H](OCc2ccccc2)[C@H]1OC (stereo not given in full)
Reply: 100
